Target: N-type calcium channel (Homo sapiens, UniProt Q00975)
Sequence (Q00975 whole entry): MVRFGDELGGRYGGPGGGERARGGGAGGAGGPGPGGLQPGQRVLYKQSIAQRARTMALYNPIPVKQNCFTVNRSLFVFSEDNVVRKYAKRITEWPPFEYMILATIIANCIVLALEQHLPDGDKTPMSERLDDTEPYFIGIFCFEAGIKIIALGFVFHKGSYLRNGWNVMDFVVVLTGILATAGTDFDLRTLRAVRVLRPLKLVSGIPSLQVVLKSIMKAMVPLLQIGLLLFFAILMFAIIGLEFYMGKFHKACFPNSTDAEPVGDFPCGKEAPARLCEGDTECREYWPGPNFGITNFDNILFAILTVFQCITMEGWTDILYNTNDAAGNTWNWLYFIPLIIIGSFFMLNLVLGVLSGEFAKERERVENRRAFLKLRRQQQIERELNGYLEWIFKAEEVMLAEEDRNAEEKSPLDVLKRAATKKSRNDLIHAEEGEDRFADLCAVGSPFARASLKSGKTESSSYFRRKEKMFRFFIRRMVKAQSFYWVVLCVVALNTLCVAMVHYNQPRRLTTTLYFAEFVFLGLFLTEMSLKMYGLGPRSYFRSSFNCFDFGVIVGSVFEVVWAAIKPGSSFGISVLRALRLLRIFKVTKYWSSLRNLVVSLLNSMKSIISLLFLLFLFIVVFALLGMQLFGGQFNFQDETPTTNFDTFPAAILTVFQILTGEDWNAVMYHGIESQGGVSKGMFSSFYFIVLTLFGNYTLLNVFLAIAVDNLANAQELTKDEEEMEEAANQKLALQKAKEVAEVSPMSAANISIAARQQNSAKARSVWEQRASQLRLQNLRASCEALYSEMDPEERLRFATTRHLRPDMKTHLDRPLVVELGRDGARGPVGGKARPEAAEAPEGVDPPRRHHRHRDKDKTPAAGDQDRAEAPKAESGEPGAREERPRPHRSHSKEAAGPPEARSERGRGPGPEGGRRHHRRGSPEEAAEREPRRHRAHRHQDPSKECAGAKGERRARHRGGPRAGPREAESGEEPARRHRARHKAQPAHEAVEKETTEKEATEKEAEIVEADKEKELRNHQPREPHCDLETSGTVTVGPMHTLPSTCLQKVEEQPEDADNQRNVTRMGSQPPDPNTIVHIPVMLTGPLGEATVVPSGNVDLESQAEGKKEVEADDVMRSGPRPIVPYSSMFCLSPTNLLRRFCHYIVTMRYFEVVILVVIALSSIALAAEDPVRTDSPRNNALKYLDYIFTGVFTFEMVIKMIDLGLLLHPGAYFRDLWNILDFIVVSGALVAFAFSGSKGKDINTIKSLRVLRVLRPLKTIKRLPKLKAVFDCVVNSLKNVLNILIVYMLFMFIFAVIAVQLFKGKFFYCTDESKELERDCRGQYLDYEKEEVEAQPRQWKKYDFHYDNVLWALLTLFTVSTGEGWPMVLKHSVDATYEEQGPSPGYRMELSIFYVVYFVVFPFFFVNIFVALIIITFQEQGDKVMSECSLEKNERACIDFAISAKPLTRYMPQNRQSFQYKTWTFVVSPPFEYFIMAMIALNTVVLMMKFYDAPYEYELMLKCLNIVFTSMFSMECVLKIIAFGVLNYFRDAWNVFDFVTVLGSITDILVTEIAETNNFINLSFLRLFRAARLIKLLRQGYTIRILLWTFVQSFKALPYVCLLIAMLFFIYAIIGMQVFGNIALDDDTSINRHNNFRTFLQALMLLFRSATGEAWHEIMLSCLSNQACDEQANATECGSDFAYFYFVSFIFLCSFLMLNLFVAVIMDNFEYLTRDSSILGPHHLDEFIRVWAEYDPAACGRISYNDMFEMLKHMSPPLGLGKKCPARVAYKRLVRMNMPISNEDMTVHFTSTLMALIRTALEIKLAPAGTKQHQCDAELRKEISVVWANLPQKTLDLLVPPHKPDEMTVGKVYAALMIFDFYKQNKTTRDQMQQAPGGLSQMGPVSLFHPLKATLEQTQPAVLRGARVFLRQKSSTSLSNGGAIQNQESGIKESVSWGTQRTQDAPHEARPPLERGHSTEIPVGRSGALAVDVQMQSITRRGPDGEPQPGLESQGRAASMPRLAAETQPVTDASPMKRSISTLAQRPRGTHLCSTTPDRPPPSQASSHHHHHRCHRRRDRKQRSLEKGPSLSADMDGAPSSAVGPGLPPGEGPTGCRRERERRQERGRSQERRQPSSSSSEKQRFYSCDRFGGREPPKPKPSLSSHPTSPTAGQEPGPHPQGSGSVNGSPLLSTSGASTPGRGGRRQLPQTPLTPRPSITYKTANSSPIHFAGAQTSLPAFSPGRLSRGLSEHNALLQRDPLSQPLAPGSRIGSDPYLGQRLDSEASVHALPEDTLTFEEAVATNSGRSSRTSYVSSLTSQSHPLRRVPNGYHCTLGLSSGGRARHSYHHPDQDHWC
Sequence (P54289 25-956 partner limits assumed): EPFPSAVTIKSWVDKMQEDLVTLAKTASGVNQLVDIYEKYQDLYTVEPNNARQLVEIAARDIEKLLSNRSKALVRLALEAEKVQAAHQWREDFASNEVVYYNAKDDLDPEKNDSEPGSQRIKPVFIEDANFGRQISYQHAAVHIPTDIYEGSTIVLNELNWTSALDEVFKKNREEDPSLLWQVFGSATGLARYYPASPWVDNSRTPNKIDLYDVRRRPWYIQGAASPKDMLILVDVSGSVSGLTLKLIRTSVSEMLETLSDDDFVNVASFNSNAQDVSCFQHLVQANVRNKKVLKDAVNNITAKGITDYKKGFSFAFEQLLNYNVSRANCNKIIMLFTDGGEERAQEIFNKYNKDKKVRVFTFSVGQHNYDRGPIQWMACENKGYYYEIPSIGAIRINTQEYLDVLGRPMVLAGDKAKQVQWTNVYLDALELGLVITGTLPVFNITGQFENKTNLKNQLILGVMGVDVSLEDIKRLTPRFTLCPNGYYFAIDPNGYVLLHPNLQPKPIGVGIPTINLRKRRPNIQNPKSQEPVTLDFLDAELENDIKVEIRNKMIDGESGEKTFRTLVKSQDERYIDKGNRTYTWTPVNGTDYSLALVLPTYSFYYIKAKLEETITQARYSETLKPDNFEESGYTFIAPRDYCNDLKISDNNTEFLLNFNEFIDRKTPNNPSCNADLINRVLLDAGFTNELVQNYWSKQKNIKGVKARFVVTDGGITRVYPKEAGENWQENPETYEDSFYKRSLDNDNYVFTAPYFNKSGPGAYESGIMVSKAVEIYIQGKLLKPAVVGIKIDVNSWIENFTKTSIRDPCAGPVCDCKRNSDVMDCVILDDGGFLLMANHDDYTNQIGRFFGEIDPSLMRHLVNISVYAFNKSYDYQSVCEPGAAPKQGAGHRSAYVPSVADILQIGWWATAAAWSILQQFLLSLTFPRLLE
Sequence (P54289 957-1103 partner limits assumed): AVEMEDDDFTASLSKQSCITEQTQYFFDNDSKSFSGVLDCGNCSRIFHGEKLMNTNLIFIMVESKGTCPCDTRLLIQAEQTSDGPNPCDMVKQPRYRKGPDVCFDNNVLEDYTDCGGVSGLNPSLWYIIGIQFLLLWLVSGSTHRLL
Sequence (Q02641 whole entry partner): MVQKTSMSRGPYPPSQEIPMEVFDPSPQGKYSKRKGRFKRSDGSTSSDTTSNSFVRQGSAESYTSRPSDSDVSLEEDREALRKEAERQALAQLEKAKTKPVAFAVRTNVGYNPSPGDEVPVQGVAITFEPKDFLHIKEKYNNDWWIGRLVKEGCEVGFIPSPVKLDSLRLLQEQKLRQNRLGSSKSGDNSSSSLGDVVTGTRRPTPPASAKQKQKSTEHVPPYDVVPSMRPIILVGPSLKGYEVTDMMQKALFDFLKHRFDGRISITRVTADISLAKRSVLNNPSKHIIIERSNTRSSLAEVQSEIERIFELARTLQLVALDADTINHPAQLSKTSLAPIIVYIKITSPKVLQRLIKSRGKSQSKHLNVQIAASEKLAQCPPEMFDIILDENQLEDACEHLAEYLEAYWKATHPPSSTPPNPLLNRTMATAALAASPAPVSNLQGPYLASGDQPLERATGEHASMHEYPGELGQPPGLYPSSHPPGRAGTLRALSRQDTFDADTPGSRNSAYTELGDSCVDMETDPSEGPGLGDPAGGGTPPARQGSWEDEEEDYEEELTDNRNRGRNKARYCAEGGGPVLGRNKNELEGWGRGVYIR
Assay: N-channel FLIPR assay
Format: cell-based
// reported IC50 for each item listed

Compound: COc1cccc2c(C(=O)O)cc(-c3ccccc3)nc12
IC50: > 10 µM
--
Compound: Nc1c2c(nc3ccccc13)-c1ccccc1CC2 [Example 27, 5,6-dihydrobenzo[c]acridin-7-amine]
IC50: 1.1 µM
--
Compound: Cc1c(-c2ccccc2)nc2ccccc2c1C(=O)O
IC50: > 10 µM
--
Compound: Nc1ccc2nc(/C=C/c3ccccc3)cc(N)c2c1
IC50: 5.4 µM
--
Compound: O=C(O)c1cc(-c2ccc(Cl)cc2)nc2ccccc12
IC50: > 10 µM
--
Compound: O=C(O)c1cc(-c2ccc(F)cc2)nc2ccccc12
IC50: > 10 µM
--
Compound: Cc1cc(C)c2c(N)cc(-c3ccccc3)nc2c1
IC50: 1.5 µM
--
Compound: Nc1cc(-c2ccccc2F)nc2ccccc12
IC50: 8 µM
--
Compound: CCc1c(-c2ccccc2)nc2ccccc2c1N
IC50: 1.2 µM
--
Compound: COc1cccc2c(N)cc(-c3ccccc3)nc12
IC50: 5 µM
--
Compound: O=C(O)c1cc(-c2ccccc2F)nc2ccccc12
IC50: > 10 µM
--
Compound: Cc1cccc(-c2cc(C(=O)O)c3ccccc3n2)c1
IC50: > 10 µM
--
Compound: Nc1ccc2nc(-c3ccccc3)cc(N)c2c1
IC50: 3.5 µM
--
Compound: Nc1cc(-c2ccc(Cl)cc2)nc2ccccc12
IC50: 5.5 µM
